- Method: qHTS assay to identify small molecule agonists of H2AX - cell viability counter screen (AID 1224847);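 further: wild-type CHO-K1 cells; top concentration of the series differs between compounds; nearly all actives have a fitted effect of over 30% in size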
- Setup Conditions: CHO-K1 viability, CellTiter-Glo luminescence, 3 h; series mostly up to 154 µM
Results filed as inconclusive are left out. The source made the active and inactive calls. The call rests on the fitted dose curve.
Pick one: active, inactive

Ask: Fill in: this test's call for CCC(C)N(C)C(=O)c1cc2ccccc2c(-c2ccccc2Cl)n1 (configuration not stated) is ___
Reply: inactive

Ask: Fill in: this test's call for Cc1nc2ccccc2n1Cc1ccc(Cl)cc1 is ___
Reply: inactive

Ask: Fill in: this test's call for CCCCOc1cc(C(=O)OCCN(CC)CC)ccc1N is ___
Reply: inactive

Ask: Fill in: this test's call for CCOC(=O)CC(=O)c1cc(F)c(Cl)nc1Cl is ___
Reply: inactive

Ask: Fill in: this test's call for CC(C)CC=O is ___
Reply: inactive

Ask: Fill in: this test's call for NC(=S)N/N=C/c1cccnc1 is ___
Reply: inactive

Ask: Fill in: this test's call for CC(=O)O[C@@H]1C(=O)O[C@@H]2[C@H]1OC(=O)[C@@H]2OC(C)=O is ___
Reply: inactive

Ask: Fill in: this test's call for O=C(CC(=O)c1ccccc1)c1ccccc1 is ___
Reply: inactive

----------
- Method: qHTS assay for identifying genotoxic compounds that show differential cytotoxicity against isogenic chicken DT40 cell lines with known DNA damage response pathways - Rad54/Ku70 mutant cell line (AID 743015); further: nearly all actives have a fitted effect of over 60% in size
- Setup Conditions: DT40 Rad54/Ku70 mutant viability, CellTiter-Glo, 40 h; series mostly up to 66.8 µM
Inconclusive results are not listed. Active and inactive are the calls of the source. Calls come from the whole dose curve; as a rule, active = well fitted cell-killing curve with a large enough effect in the repeat runs; inconclusive = weak or mixed curves; inactive = no such curve, though single readings can be large or run the other way.
Pick one: t for active, f for inactive

>>> print(df.to_string())
                                   molecule  label
0  CN(c1nccc(=O)[nH]1)C1CCN(c2nc3ccccc3n2Cc2ccc(F)cc2)CC1      f
1    CCN1CCC[C@H]1CNC(=O)c1c(OC)ccc(Br)c1OC      f
2  CC/C(=C\C(=N/O)C(N)=O)C(C)[N+](=O)[O-] (configuration not stated)      t
3                      Cc1cccc(C(C)(C)C)c1O      f
4  CC1CCc2cc(F)cc3c(=O)c(C(=O)O)cn1c23 (configuration not stated)      f

Ask: Fill in: this test's call for CCCCCCCCC(CO)CCCCCC (configuration not stated) is ___
Reply: f

Ask: Fill in: this test's call for CC(=O)/C=C/C1C(C)=CCCC1(C)C (configuration not stated) is ___
Reply: f

Ask: Fill in: this test's call for SC1CCCC1 is ___
Reply: f

Ask: Fill in: this test's call for CC(C)CCCCCCOC(=O)c1ccc(C(=O)OCCCCCCC(C)C)c(C(=O)OCCCCCCC(C)C)c1 is ___
Reply: f

Ask: Fill in: this test's call for CC(=O)[C@@]1(O)CC[C@H]2[C@@H]3C[C@H](C)C4=CC(=O)CC[C@]4(C)[C@H]3CC[C@@]21C is ___
Reply: t

Ask: Fill in: this test's call for C=C(C)C(=O)OCCN(C)C is ___
Reply: f

Ask: Fill in: this test's call for CC(C(=O)O)c1ccc(C(=O)c2ccccc2)s1 (configuration not stated) is ___
Reply: f
